The measured values listed here are drawn from patent US20110046056A1.

assayed target: ATP-binding cassette transporter A1 (ABCA1) (mouse, UniProt P41233 1-2261)
Sequence (P41233 whole entry): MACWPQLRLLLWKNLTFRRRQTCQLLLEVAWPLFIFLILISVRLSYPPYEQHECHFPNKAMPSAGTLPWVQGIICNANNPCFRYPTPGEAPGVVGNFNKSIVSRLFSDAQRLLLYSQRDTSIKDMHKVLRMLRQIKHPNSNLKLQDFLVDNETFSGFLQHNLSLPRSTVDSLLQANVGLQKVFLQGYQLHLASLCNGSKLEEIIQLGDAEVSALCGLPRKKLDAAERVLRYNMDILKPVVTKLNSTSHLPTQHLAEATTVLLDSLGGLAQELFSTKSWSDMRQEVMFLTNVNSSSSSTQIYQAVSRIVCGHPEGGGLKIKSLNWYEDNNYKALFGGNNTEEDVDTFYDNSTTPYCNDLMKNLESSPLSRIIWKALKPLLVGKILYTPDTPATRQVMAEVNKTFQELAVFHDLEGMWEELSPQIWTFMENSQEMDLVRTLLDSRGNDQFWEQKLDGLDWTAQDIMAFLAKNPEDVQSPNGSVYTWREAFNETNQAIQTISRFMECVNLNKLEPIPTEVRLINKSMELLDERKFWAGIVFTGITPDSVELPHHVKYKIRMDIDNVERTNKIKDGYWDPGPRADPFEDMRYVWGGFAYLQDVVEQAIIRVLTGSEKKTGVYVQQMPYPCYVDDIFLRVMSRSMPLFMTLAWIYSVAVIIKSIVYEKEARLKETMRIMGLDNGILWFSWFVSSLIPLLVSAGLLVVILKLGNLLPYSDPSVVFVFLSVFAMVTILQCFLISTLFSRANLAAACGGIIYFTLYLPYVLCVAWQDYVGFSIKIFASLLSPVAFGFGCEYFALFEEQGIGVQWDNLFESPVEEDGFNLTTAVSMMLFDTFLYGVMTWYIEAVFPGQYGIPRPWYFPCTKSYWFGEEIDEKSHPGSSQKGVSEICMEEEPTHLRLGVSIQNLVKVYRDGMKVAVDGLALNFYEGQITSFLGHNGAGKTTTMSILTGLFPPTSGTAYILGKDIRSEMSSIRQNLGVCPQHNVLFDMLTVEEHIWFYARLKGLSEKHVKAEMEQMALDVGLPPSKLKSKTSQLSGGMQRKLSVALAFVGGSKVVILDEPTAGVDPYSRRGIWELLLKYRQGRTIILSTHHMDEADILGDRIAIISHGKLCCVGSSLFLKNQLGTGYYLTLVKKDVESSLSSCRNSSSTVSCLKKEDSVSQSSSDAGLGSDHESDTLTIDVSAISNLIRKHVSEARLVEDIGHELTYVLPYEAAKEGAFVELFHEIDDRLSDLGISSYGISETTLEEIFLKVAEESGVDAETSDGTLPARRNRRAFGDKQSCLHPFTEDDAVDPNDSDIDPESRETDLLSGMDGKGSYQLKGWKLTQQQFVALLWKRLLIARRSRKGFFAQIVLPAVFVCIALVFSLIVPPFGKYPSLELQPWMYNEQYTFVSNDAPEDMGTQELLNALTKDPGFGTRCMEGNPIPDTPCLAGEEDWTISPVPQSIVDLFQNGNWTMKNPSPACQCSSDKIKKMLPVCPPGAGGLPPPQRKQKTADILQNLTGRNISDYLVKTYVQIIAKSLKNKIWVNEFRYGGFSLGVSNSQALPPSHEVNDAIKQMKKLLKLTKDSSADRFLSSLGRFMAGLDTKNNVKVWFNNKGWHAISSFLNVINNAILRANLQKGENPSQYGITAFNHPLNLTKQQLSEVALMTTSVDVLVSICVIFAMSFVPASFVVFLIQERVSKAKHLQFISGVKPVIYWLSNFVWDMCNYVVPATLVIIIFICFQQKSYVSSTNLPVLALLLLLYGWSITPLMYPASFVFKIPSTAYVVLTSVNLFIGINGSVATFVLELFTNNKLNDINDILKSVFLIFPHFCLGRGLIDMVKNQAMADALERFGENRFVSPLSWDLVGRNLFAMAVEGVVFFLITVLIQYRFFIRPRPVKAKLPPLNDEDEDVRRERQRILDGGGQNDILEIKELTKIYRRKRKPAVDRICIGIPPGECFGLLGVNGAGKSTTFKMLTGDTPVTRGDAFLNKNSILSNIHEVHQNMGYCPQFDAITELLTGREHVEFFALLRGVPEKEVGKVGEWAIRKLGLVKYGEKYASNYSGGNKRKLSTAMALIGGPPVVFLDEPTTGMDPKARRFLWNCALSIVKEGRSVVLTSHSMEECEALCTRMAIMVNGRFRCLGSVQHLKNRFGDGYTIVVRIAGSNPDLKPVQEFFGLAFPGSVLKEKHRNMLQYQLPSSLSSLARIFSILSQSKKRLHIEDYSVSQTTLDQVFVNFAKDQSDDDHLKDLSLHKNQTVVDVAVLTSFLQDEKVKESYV
assay overview: cell-based or functional assay
*1 amine or outer side, *2 acyl side, *3 side chain or, on linkers, in order; H or OH if unused. Where no end group is shown, it is not given here. [ ]: non-standard residue; d: D form. S7H3 = (2S)-2-aminononanoic acid, CCCCCCC[C@H](N[*:1])C(=O)[*:2]; Ala(5-hexenyl) = C=CCCCCC[C@H](N)C(=O)O; S8H3 = not defined here
quantity: ABCA1-dependent cholesterol efflux EC50 (µM)
Numbers only here, please. The scale is µM.

Look over these answered cases.
| binder | quantity | assay result |
| --- | --- | --- |
| Ac-PVLDEFKEKLNE[Ala(5-hexenyl)]LEALKQKLK (not fully specified (C-terminus)) [CONS[K^7, S7H^13]] | ABCA1-dependent cholesterol efflux EC50 | 1.3 |
| Ac-PVLDE[S8H3]REKLNE[S8H3]LEALKQKLK (reading uncertain) [CONS[S8H3^6,13]] | ABCA1-dependent cholesterol efflux EC50 | 0.6 |

Attention now shifts to the item below.
Task: Data request, read-out ABCA1-dependent cholesterol efflux EC50, for Ac-PVLDEFREKLNE[S7H3]LEALKQKLK (not fully specified (C-terminus); printed as PVLDEFREKLNES7H3LEALKQKLK) [CONS[S7H3^13]]
Output: 0.6
